Data provenance: patent US20170216252A1

// melting point lookup, one value per entry

Please review the entries below; each comes with its answer.
                                   compound   assay_result
0  COc1ccc2[nH]c(-c3cc4ccc(Br)cc4[nH]3)cc2c1 [Compound 10f, 6′-Bromo-5-methoxy-1H,1′H-2,2′-biindole]  240 to 241 °C
1  Brc1ccc2[nH]c(-c3cc4cc(Br)ccc4[nH]3)cc2c1 [Compound 10i, 5,5′-Bibromo-1H,1′H-2,2′-biindole]  304 to 306 °C
2  Brc1ccc2cc(-c3cc4ccccc4o3)[nH]c2c1 [Compound 22b, 2-(Benzofuran-2-yl)-6-bromo-1H-indole]  196 to 198 °C
3  Cn1c(-c2cc3cc(Br)ccc3[nH]2)cc2ccc(Br)cc21 [Compound 12b]  192 to 194 °C
4  Brc1ccc2cc(-c3cccc(-c4cc5ccccc5[nH]4)c3)[nH]c2c1 [Compound 33f]  224 to 226 °C
5  Brc1ccc2cc(-c3cc4ccc(Br)cc4[nH]3)[nH]c2c1 [Compound 10b, 6,6′-Dibromo-1H,1′H-2,2′-biindole]  266 to 267 °C

Exam item: If you can, please state the reported melting point value of Brc1ccc2cc(-c3ccc(-c4cc5ccccc5[nH]4)cc3)[nH]c2c1 [Compound 33c] .
Marked response: > 300 °C

* * *

// IC50 lookup, one value per entry
measured target: MRSA PK (Staphylococcus aureus)
Construct: His tag (pET-28a(+) vector) (N); made in house; host or cells: E. coli BL-21 (DE3)
Sequence (Q6GG09 whole entry): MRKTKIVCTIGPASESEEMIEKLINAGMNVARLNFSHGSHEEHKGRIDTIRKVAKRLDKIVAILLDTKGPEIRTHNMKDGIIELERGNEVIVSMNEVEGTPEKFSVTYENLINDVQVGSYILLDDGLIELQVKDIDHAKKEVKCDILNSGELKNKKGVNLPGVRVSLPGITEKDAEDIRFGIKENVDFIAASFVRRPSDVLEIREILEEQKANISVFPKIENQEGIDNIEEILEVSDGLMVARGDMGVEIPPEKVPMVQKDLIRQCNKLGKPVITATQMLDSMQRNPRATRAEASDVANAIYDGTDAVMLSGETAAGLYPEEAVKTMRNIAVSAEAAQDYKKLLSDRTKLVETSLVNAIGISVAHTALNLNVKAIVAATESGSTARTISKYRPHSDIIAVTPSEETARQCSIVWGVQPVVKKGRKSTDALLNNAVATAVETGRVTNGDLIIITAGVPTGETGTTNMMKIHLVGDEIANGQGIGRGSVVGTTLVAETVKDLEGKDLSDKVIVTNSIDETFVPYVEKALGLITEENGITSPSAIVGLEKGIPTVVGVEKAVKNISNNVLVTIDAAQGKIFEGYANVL
experiment: MRSA PK activity, continuous LDH-coupled assay
Assay type: biochemical, S. aureus (MRSA strain Sanger 252)
Protocol: Genomic DNA of MRSA strain Sanger 252 extracted using DNeasy Tissue Kit™ (Qiagen™) was used as a template to generate the His-tagged MRSA PK. […] The sequence and the correct reading frame of all constructs were verified by sequencing. […] MRSA and human constructs in pET-28a(+) were used to express relevant recombinant PK proteins in E. coli BL-21 (DE3). […] Briefly, cells were grown to an absorbance of 0.4-0.5 at 600 nm in 2×YT medium, then induced with 0.1 mM IPTG for 3 h at 20° C. […]

Exam item: If you can, please state the reported IC50 value of "O=C(O)c1c(/C=C/c2ccc(Cl)cc2)[nH]c2cc(Br)ccc12" .
Marked response: 100 to 1000 nM

Exam item: If you can, please state the reported IC50 value of "COc1ccc(NC(=O)c2[nH]c3cc(Br)ccc3c2C(=O)O)cn1" .
Marked response: 100 to 1000 nM

Exam item: If you can, please state the reported IC50 value of "O=C(O)c1cc(Br)cc2[nH]c(/C=C/c3ccc(Cl)cc3)cc12" .
Marked response: > 1000 nM

Exam item: If you can, please state the reported IC50 value of "COC(=O)c1c(/C=C/c2ccc(Cl)cc2)[nH]c2cc(Br)ccc12" .
Marked response: < 50 nM

Exam item: If you can, please state the reported IC50 value of "COc1ccc(/C=C/c2cc3ccc(Br)cc3[nH]2)nc1" .
Marked response: 50 to 100 nM

* * *

readout name: melting point

In [3]: df
Out[3]:
                                   compound   assay_result
0  Cn1c(-c2cc3ccc(Br)cc3[nH]2)cc2cc(Br)ccc21 [Compound 12a]  180 to 182 °C
1  Fc1ccc2[nH]c(-c3cc4ccc(Br)cc4[nH]3)cc2c1 [Compound 10e, 6′-Bromo-5-fluoro-1H,1′H-2,2′-biindole]  246 to 248 °C
2  Brc1ccc2cc(C#Cc3cc4ccccc4[nH]3)[nH]c2c1 [Compound 25a]  240 to 242 °C
3  Brc1ccc2cc(-c3cc4cc(-c5ccccc5)ccc4[nH]3)[nH]c2c1 [Compound 10g, 6′-Bromo-5-phenyl-1H,1′H-2,2′-biindole]  237 to 239 °C
4  Clc1ccc2[nH]c(-c3cc4ccc(Br)cc4[nH]3)cc2c1 [Compound 10d, 6′-Bromo-5-chloro-1H,1′H-2,2′-biindole]  257 to 259 °C

Exam item: If you can, please state the reported melting point value of Brc1ccc2[nH]c(-c3cc4ccccc4s3)cc2c1 [Compound 22f] .
Marked response: 269 to 271 °C

Exam item: If you can, please state the reported melting point value of "O=C(O)Cn1c(-c2cc3ccc(Br)cc3[nH]2)cc2cc(Br)ccc21" .
Marked response: 321 to 323 °C

Exam item: If you can, please state the reported melting point value of Brc1ccc2[nH]c(C#Cc3cc4ccc(Br)cc4[nH]3)cc2c1 [Compound 25c] .
Marked response: 236 to 237 °C
